# maps each entry to its plate-normalised HSF1 focus index
Assay: modifiers of HSF1 nuclear foci, imaging, Selleck Cancer Library (AID 1347162)
Details: human cells, at 10 µM; stronger effect = lower value
Calls of active or inactive are those of the source. Rule as the data show it: active = plate-normalised HSF1 focus index below about 0.46; inactive = the rest.
endpoint.name: plate-normalised HSF1 focus index

compound	endpoint.name	result
C=C1C[C@@H]2[C@H](CC[C@]3(C)C(=O)CC[C@@H]23)[C@@]2(C)C=CC(=O)C=C12	plate-normalised HSF1 focus index	1.09 (inactive)
Cn1cc(C2=C(c3cn(C4CCN(Cc5ccccn5)CC4)c4ccccc34)C(=O)NC2=O)c2ccccc21	plate-normalised HSF1 focus index	1.03 (inactive)
N[C@@H](Cc1ccc(N(CCCl)CCCl)cc1)C(=O)O	plate-normalised HSF1 focus index	1.09 (inactive)
O=C(O)c1nn(Cc2ccc(Cl)cc2Cl)c2ccccc12	plate-normalised HSF1 focus index	1.03 (inactive)
CC(C)[C@]12O[C@H]1[C@@H]1O[C@]13[C@]1(O[C@H]1C[C@H]1C4=C(CC[C@@]13C)C(=O)OC4)[C@@H]2O	plate-normalised HSF1 focus index	0.769 (inactive)
CC(O)(CS(=O)(=O)c1ccc(F)cc1)C(=O)Nc1ccc(C#N)c(C(F)(F)F)c1 (centres undefined)	plate-normalised HSF1 focus index	1.1 (inactive)
O=C(Oc1ccc([N+](=O)[O-])cc1)N1CCC(C(O)(c2ccc3c(c2)OCO3)c2ccc3c(c2)OCO3)CC1	plate-normalised HSF1 focus index	1.2 (inactive)
O=P1(N(CCCl)CCCl)NCCCO1 (centres undefined)	plate-normalised HSF1 focus index	1.05 (inactive)
Cc1ccccc1-n1c(Cn2cnc3c(N)ncnc32)nc2cccc(C)c2c1=O	plate-normalised HSF1 focus index	1.12 (inactive)

---

Tested on: Aerobactin synthetase IucA (Klebsiella pneumoniae, hypervirulent)
Assay: IucA enzyme inhibition, biochemical, LOPAC library, absorbance readout (AID 1346212);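 also: 100% = no compound wells and 0% = no enzyme wells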
Details: IucA enzyme assay, absorbance (OD) readout; stronger effect = lower value; concentration not given here
The source made the active and inactive calls. No rule for the calls is given here.
endpoint.name: remaining activity

compound	target.system	endpoint.name	result
CCCN1C[C@H](CSC)C[C@@H]2c3cccc4[nH]cc(c34)C[C@H]21	Aerobactin synthetase IucA (Klebsiella pneumoniae, hypervirulent)	remaining activity	95.5% (inactive)
O=C[C@H](Cl)[C@@H](O)[C@H](O)[C@H](O)CO	Aerobactin synthetase IucA (Klebsiella pneumoniae, hypervirulent)	remaining activity	101% (inactive)
NC(N)=N[C@@H](CCC(=O)O)C(=O)O	Aerobactin synthetase IucA (Klebsiella pneumoniae, hypervirulent)	remaining activity	115% (inactive)
O=C(/C=C/c1ccc(O)c(O)c1)OCCc1ccccc1	Aerobactin synthetase IucA (Klebsiella pneumoniae, hypervirulent)	remaining activity	105% (inactive)
CN(C)CCCO[C@@H]1[C@H]2OC(C)(C)O[C@H]2O[C@@H]1[C@H](O)CO	Aerobactin synthetase IucA (Klebsiella pneumoniae, hypervirulent)	remaining activity	113% (inactive)
COC(=O)c1c(C)[nH]c(C)c1C(=O)c1ccccc1Cc1ccccc1	Aerobactin synthetase IucA (Klebsiella pneumoniae, hypervirulent)	remaining activity	96.6% (inactive)
O=c1c(O)c(-c2cc(O)c(O)c(O)c2)oc2cc(O)cc(O)c12	Aerobactin synthetase IucA (Klebsiella pneumoniae, hypervirulent)	remaining activity	115% (inactive)
C[N+]1(C)C2CCC1CC(OC(=O)C(CO)c1ccccc1)C2 (stereo unspecified)	Aerobactin synthetase IucA (Klebsiella pneumoniae, hypervirulent)	remaining activity	112% (inactive)
CC(C)(C)[C@]1(O)CCN2C[C@H]3c4ccccc4CCc4cccc(c43)[C@@H]2C1	Aerobactin synthetase IucA (Klebsiella pneumoniae, hypervirulent)	remaining activity	105% (inactive)
C[Se]C[C@H](N)C(=O)O	Aerobactin synthetase IucA (Klebsiella pneumoniae, hypervirulent)	remaining activity	106% (inactive)
NC(Cc1cccc(-c2ccccc2CP(=O)(O)O)c1)C(=O)O (stereo unspecified)	Aerobactin synthetase IucA (Klebsiella pneumoniae, hypervirulent)	remaining activity	103% (inactive)
